Recorded pIC50 by entry
tested on: immortalized human hepatocyte cell line (IHH); test: Antiproliferative MTS assay, IHH non-cancerous cells; format: cell-based; settings: 72 h
Note on units: pIC50 is unitless, being -log10 of a concentration expressed in mol/L.

Known pIC50 results, listed for orientation:
Problem: Entry CC(=O)O[C@H]1C(=O)[C@@]2(C)[C@H]([C@H](OC(=O)c3ccccc3)[C@]3(O)C[C@H](OC(=O)[C@H](O)[C@@H](NC(=O)c4ccccc4)c4ccccc4)C(C)=C1C3(C)C)[C@]1(OC(C)=O)CO[C@@H]1C[C@@H]2O [Paclitaxel, reference compound] has what pIC50?
Solution: 7.10

Problem: Entry CC(C)=CCC/C(C)=C/CC/C(C)=C/CC/C(C)=C/CC/C(C)=C\CC/C(C)=C\CC/C(C)=C\CC/C(C)=C\CC/C(C)=C\CC/C(C)=C\CC/C(C)=C\CC/C(C)=C\CO [Compound 2, (Z8,E3,ω)-dodecaprenol] has what pIC50?
Solution: 4.12

Problem: Entry CC(C)=CCC/C(C)=C/CC/C(C)=C/CC/C(C)=C/CC/C(C)=C\CC/C(C)=C\CC/C(C)=C\CC/C(C)=C\CC/C(C)=C\CC/C(C)=C\CC/C(C)=C\CC/C(C)=C\CC/C(C)=C\CO [Compound 3, (Z9,E3,ω)-tridecaprenol] has what pIC50?
Solution: 4.13

Query compound follows.
Problem: Entry CC(C)=CCC/C(C)=C/CC/C(C)=C/CC/C(C)=C/C[C@@H](O)/C=C(\C)CC/C=C(\C)CC/C=C(\C)CCC=C(C)C [Compound 1] has what pIC50?
Solution: 4.05
